Data origin, for the record: PubChem BioAssay (NCI)

- Test system: UO-31 renal
- assay_text: NCI-60 one-dose screen, 48 h (100 = growth as untreated, 0 = no growth, -100 = all killed)
- conditions: 10 µM
Compounds without any hit were thinned out: in the full panel of roughly 83,000, 20% have a hit.
assay_metric: growth (%)
// units = %; emit number, no label

Problem: Please state recorded growth (tested on UO-31 renal) of CC(=O)OC(C(=O)O)c1ccccc1 (configuration not stated)
Solution: 126

Problem: Please state recorded growth (tested on UO-31 renal) of "CC(=O)Oc1ccc(Br)cc1C(=O)O"
Solution: 81.8

Problem: I'm curious: which growth was measured for "CC1=NN(c2ccccc2)C(=O)/C1=C\N1CC(=O)NC1=S" tested on UO-31 renal?
Solution: 92
